Just for reference, PubChem BioAssay (NCATS) is where these values come from.

# Assay Remarks: qHTS of pediatric cancer cell lines to identify multiple opportunities for drug repurposing: Confirmatory screen for OHS-50 cells (AID 1347128);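 further: compound exposure lasted 48 h at 37 degrees C; nearly all actives have a fitted effect of over 55% in size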
# Measurement Parameters: OHS-50 osteosarcoma cells viability; series mostly up to 45.9 µM
# Protocol: Drug repurposing or repositioning has been offered as a strategy for drug development in oncology programs. […] [1] Shen, M et al. Quantitative high-throughput phenotypic screening of pediatric cancer cell lines identifies multiple opportunities for drug repurposing. […] Cells were assayed in growth media at a density of 500-1,000 cells/well. […] After a 15 min incubation at room temperature, samples were analyzed for luminescence intensity using a ViewLux High-throughput CCD imager equipped with clear filters.
Records with an inconclusive call do not appear. The source made the active and inactive calls. The call rests on the fitted dose curve; in most records, active means well fitted cell-killing curve with a large enough effect; inconclusive means small, poorly fitted or top-dose-only effect, or effect the other way; inactive means no such curve, though single readings can be large or run the other way.
# valid calls are Yes (active), No (inactive); nothing else

Recorded results for 5 molecules are shown here.
Molecule | Class Assignment
CCC(=O)O[C@]1(C(=O)SCF)[C@H](C)C[C@H]2[C@@H]3C[C@H](F)C4=CC(=O)C=C[C@]4(C)[C@@]3(F)[C@@H](O)C[C@@]21C | No
CS(=O)(=O)c1ccc([C@@H](O)[C@@H](CO)NC(=O)C(Cl)Cl)cc1 | No
Nc1[nH]c(=O)ncc1F | No
Nc1nc(N)nc(-c2cc(Cl)ccc2Cl)n1 | No
CCCCOc1ccc(CC(=O)NO)cc1 | No

Now consider a different molecule.
QUERY: Please let me know the test result on file for CNS(=O)(=O)CCc1ccc2[nH]cc(C3CCN(C)CC3)c2c1 .
RESULT: No
